Just for reference, ChEMBL document CHEMBL2086321 is where these values come from.

# assayed_target: Transient receptor potential cation channel subfamily M member 8 (Rattus norvegicus, UniProt Q8R455)
# Sequence (Q8R455 whole entry): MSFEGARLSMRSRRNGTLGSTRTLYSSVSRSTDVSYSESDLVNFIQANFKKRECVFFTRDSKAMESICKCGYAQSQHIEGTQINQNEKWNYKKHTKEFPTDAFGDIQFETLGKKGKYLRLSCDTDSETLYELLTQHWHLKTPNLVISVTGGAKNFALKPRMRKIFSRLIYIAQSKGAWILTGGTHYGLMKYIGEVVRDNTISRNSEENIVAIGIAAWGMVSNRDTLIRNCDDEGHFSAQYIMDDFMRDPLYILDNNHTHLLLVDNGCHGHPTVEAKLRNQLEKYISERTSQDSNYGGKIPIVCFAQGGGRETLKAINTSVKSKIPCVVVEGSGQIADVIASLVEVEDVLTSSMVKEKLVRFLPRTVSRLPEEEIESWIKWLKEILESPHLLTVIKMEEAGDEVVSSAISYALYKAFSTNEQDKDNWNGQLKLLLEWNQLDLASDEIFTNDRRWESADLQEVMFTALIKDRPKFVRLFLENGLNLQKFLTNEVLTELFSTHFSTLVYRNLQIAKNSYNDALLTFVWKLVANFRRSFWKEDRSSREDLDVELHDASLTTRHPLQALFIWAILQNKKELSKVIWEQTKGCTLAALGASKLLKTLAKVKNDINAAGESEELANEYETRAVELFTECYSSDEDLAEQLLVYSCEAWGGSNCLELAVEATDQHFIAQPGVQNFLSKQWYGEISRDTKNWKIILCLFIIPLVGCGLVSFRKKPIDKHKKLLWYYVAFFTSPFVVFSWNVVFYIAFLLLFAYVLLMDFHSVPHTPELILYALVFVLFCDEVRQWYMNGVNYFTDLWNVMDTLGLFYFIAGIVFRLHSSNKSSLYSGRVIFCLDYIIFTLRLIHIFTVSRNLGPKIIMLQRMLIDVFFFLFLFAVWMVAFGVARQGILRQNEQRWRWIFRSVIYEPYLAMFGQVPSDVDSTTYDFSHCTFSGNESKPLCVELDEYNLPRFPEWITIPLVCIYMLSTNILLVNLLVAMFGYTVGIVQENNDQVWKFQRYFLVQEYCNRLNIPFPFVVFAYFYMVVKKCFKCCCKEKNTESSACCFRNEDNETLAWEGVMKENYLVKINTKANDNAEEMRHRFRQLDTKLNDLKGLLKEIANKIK
# test_method_notes: Inhibition of rat TRPM8 expressed in HEK293 cells assessed as reduction in […] icilin-stimulated increase in intracellular Ca2+ levels
# Format: cell-based
Hi there, I'd appreciate the recorded pIC50 for every entry that follows.
Give bare numbers, as −log10 of the molar value.

1) Cc1ccc(C(C)C)c(N)c1 = 3.62
2) Cc1ccc(C(C)C)c(NC(=O)Oc2ccc(C(F)(F)F)cc2)c1 = 4.64
3) Cc1ccc(C(C)C)c(NC(=O)Oc2ccc(C(C)(C)C)cc2)c1 = 6.15
4) COc1ccc(NC(=O)Nc2cc(C)ccc2C(C)C)cc1 = 4.41
5) Cc1ccc(C(C)C)c(C(=O)NCCc2ccccc2)c1 = 6.22

Look up pIC50 for the entries below, preserving their order.
1. Cc1ccc(C(C)C)c(C(=O)Nc2ccc(C(F)(F)F)cc2)c1
2. COc1ccc(C(=O)Oc2cc(C)ccc2C(C)C)cc1
3. COc1ccc(C(=O)Nc2cc(C)ccc2C(C)C)cc1
4. Cc1ccc(C(C)C)c(NC(=O)c2ccc(C(C)(C)C)cc2)c1
5. Cc1ccc(C(C)C)c(NC(=O)Cc2cccc(I)c2)c1
6. Cc1ccc(C(C)C)c(O)c1 [THYMOL]
7. Cc1ccc(C(C)C)c(NC(=O)Nc2ccc(-c3ccccc3)cc2)c1

A)
5.49
5.19
4.83
6.00
4.94
3.50
4.43

Look up pIC50 for the entries below, preserving their order.
1. Cc1ccc(C(C)C)c(C(=O)Nc2ccc(Cl)cc2)c1
2. Cc1ccc(C(C)C)c(C(=O)NCCc2c[nH]c3ccc(OCc4ccccc4)cc23)c1
3. Cc1ccc(C(C)C)c(C(=O)Nc2ccc(C(C)(C)C)cc2)c1
4. Cc1ccc(C(C)C)c(NC(=O)Cc2ccc(-c3ccccc3)cc2)c1
5. Cc1ccc(C(C)C)c(OC(=O)c2ccc(-c3ccccc3)cc2)c1
6. COc1ccc(NC(=O)Oc2cc(C)ccc2C(C)C)cc1

A)
5.32
4.16
5.72
4.51
4.67
5.60

* * *

# assayed_target: Transient receptor potential cation channel subfamily M member 8 (Rattus norvegicus)
# test_method_notes: Activation of rat TRPM8 expressed in HEK293 cells assessed as stimulation of intracellular Ca2+ levels relative to 4 uM ionomycin
# Format: cell-based
readout: Efficacy

Look up Efficacy for the entries below, preserving their order.
1. Cc1ccc(C(C)C)c(NC(=O)Cc2ccc(-c3ccccc3)cc2)c1
2. Cc1ccc(C(C)C)c(C(=O)Nc2ccc(Cl)cc2)c1
3. Cc1ccc(C(C)C)c(NC(=O)Oc2ccc(C(F)(F)F)cc2)c1
4. Cc1ccc(C(C)C)c(NC(=O)Nc2ccc(C(C)(C)C)cc2)c1
5. Cc1ccc(C(C)C)c(NC(=O)Cc2cccc(I)c2)c1
6. Cc1ccc(C(C)C)c(OC(=O)c2ccc(-c3ccccc3)cc2)c1
7. COc1ccc(OC(=O)c2cc(C)ccc2C(C)C)cc1
8. Cc1ccc(C(C)C)c(OC(=O)Cc2ccc(-c3ccccc3)cc2)c1

A)
1: < 10%; 2: 43.2%; 3: < 10%; 4: < 10%; 5: < 10%; 6: < 10%; 7: < 10%; 8: < 10%

Look up Efficacy for the entries below, preserving their order.
1. Cc1ccc(C(C)C)c(NC(=O)c2ccc(C(C)(C)C)cc2)c1
2. Cc1ccc(C(C)C)c(C(=O)NCCc2ccccc2)c1

A)
["24.5%", "64.1%"]
